Measured IC50 accompanies every entry in the list below.
experiment: ABTS radical scavenging; conditions: mean ± SD (n = 3); read-out: ABTS radical scavenging IC50 (concentration compound required for 50% scavenging)

CC(C)=CCC[C@@H](C)C(/C=N/O)[Se]c1ccccc1 (stereo partly drawn): 25 µM
CC(C)=CCCC(C)(C/C=[N+](\C)[O-])Sc1ccccc1 (stereo not drawn): 419 µM

Read the next record carefully.
Data request: IC50 lookup needed for CC(C)=CCCC(C)C(/C=[N+](\C)[O-])Sc1ccccc1 (stereo not drawn) , thanks.
Data returned: 297 µM

* * *

Biological target: UniProtKB P10518
Sequence (P10518 1-330): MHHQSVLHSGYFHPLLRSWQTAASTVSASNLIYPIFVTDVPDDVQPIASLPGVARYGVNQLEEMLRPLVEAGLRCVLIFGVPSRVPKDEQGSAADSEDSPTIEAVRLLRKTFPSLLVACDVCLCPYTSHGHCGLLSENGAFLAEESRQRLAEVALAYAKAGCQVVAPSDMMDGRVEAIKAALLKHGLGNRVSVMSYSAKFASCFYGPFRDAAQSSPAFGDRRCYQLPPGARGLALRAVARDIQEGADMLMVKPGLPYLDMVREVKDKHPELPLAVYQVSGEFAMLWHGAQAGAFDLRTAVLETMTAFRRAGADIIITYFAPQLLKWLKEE
Test: δ-ALA-D activity in tissue supernatants (in vitro toxicity)
Settings: Brain, 50 μM; mean ± SD (n = 3)
MEASUREMENT KIND: δ-ALA-D activity

Example results:
CC(C)=CCC[C@@H](C)C(/C=N/O)[Se]c1ccccc1 (stereo partly shown) [compound 10]: 0.28 ± 0.09 nmol PBG.mg.tn‐1.h‐1
CC(C)=CCCC(C)C/C=[N+](\C)[O-] (stereo not shown) [5d]: 0.27 ± 0.10 nmol PBG.mg.tn‐1.h‐1
CC(C)=CCCC(C)(C/C=[N+](\C)[O-])Sc1ccccc1 (stereo not shown) [5c]: 0.28 ± 0.09 nmol PBG.mg.tn‐1.h‐1

Read the next record carefully.
Data request: δ-ALA-D activity lookup needed for CC(C)=CCCC(C)C(/C=[N+](\C)[O-])Sc1ccccc1 (stereo not shown) [5a] , thanks.
Data returned: 0.42 ± 0.10 nmol PBG.mg.tn‐1.h‐1

* * *

tested on: Staphylococcus aureus ATCC 25923; test: MIC and MBC, macro dilution tube method; type: cell-based; settings: S. mureus (so in the source), 10^5 CFU.mL^−1, 24 h
MEASUREMENT KIND: MIC

Example results:
CC(C)=CCCC(C)C(/C=[N+](\C)[O-])Sc1ccccc1 (stereo not shown): >0.65 mM.mL^−1
CC(C)=CCC[C@@H](C)C(/C=N/O)[Se]c1ccccc1 (stereo partly shown): >0.70 mM.mL^−1

Data request: MIC lookup needed for CC(C)=CCCC(C)C/C=[N+](\C)[O-] (stereo not shown) , thanks.
Data returned: 1.26 mM.mL^−1

Data request: MIC lookup needed for CC(C)=CCCC(C)(C/C=[N+](\C)[O-])Sc1ccccc1 (stereo not shown) , thanks.
Data returned: 0.61 mM.mL^−1

* * *

target: δ-ALA-D (Mus musculus); experiment: δ-ALA-D activity in tissue supernatants (in vitro toxicity); conditions: Brain, 500 μM; mean ± SD (n = 3)
Measured δ-ALA-D activity accompanies every entry in the list below.
Write the number in nmol PBG.mg.tn‐1.h‐1 without appending the unit.

Example results:
CC(C)=CCCC(C)C/C=[N+](\C)[O-] (stereo not shown): 0.24
CC(C)=CCCC(C)(C/C=[N+](\C)[O-])Sc1ccccc1 (stereo not shown): 0.26

Data request: δ-ALA-D activity lookup needed for CC(C)=CCC[C@@H](C)C(/C=N/O)[Se]c1ccccc1 (stereo partly shown) , thanks.
Data returned: 0.26

Data request: δ-ALA-D activity lookup needed for CC(C)=CCCC(C)C(/C=[N+](\C)[O-])Sc1ccccc1 (stereo not shown) , thanks.
Data returned: 0.36

* * *

biological target: δ-ALA-D (Mus musculus, UniProt P10518); test: δ-ALA-D activity in tissue supernatants (in vitro toxicity); conditions: Kidney, 100 μM; mean ± SD (n = 3)
MEASUREMENT KIND: δ-ALA-D activity (nmol PBG.mg.tn‐1.h‐1)
Write the number in nmol PBG.mg.tn‐1.h‐1 without appending the unit.

Example results:
CC(C)=CCCC(C)C/C=[N+](\C)[O-] (stereo not shown) [5d]: 0.89
CC(C)=CCCC(C)C(/C=[N+](\C)[O-])Sc1ccccc1 (stereo not shown) [5a]: 1.09
CC(C)=CCCC(C)(C/C=[N+](\C)[O-])Sc1ccccc1 (stereo not shown) [5c]: 0.99

Read the next record carefully.
Data request: Param readout= δ-ALA-D activity; system= δ-ALA-D (Mus musculus, UniProt P10518); entry= CC(C)=CCC[C@@H](C)C(/C=N/O)[Se]c1ccccc1 (stereo partly shown) [compound 10] ; returns value.
Data returned: 0.84

* * *

tested on: Bacillus cereus ATCC 11778; test: MIC and MBC, macro dilution tube method; format: cell-based; conditions: B. mereus (so in the source), 10^5 CFU.mL^−1, 24 h
Measured MIC accompanies every entry in the list below.
Write the number in mM.mL^−1 without appending the unit.

CC(C)=CCCC(C)(C/C=[N+](\C)[O-])Sc1ccccc1 (stereo not shown): 0.69

Data request: MIC lookup needed for CC(C)=CCCC(C)C(/C=[N+](\C)[O-])Sc1ccccc1 (stereo not shown) , thanks.
Data returned: 0.48

* * *

Measured δ-ALA-D activity accompanies every entry in the list below.
biological target: δ-ALA-D (Mus musculus, UniProt P10518); test: δ-ALA-D activity in tissue supernatants (in vitro toxicity); settings: Liver, 500 μM; mean ± SD (n = 3)
Write the number in nmol PBG.mg.tn‐1.h‐1 without appending the unit.

CC(C)=CCCC(C)C/C=[N+](\C)[O-] (stereo not shown) [5d]: 2.84
CC(C)=CCCC(C)(C/C=[N+](\C)[O-])Sc1ccccc1 (stereo not shown) [5c]: 3.88
CC(C)=CCCC(C)C(/C=[N+](\C)[O-])Sc1ccccc1 (stereo not shown) [5a]: 4.46

Data request: δ-ALA-D activity lookup needed for CC(C)=CCC[C@@H](C)C(/C=N/O)[Se]c1ccccc1 (stereo partly shown) [compound 10] , thanks.
Data returned: 3.97

* * *

target: δ-ALA-D (Mus musculus); experiment: δ-ALA-D activity in tissue supernatants (in vitro toxicity); details: Brain, 100 μM; mean ± SD (n = 3)
MEASUREMENT KIND: δ-ALA-D activity (nmol PBG.mg.tn‐1.h‐1)
Write the number in nmol PBG.mg.tn‐1.h‐1 without appending the unit.

CC(C)=CCCC(C)(C/C=[N+](\C)[O-])Sc1ccccc1 (stereo not shown): 0.26

Data request: Param readout= δ-ALA-D activity; system= δ-ALA-D (Mus musculus); entry= CC(C)=CCCC(C)C/C=[N+](\C)[O-] (stereo not shown) ; returns value.
Data returned: 0.26

Data request: Param readout= δ-ALA-D activity; system= δ-ALA-D (Mus musculus); entry= CC(C)=CCCC(C)C(/C=[N+](\C)[O-])Sc1ccccc1 (stereo not shown) ; returns value.
Data returned: 0.40

Data request: Param readout= δ-ALA-D activity; system= δ-ALA-D (Mus musculus); entry= CC(C)=CCC[C@@H](C)C(/C=N/O)[Se]c1ccccc1 (stereo partly shown) ; returns value.
Data returned: 0.26
